Measured EC50 accompanies every entry in the list below.
Molecular target: TYK2 (aa 871-1187, catalytic domain, GST-tag) (Homo sapiens)
Construct: JAK1 (aa 850-1154) and TYK2 (aa 871-1187) are expressed with an N-terminally fused GST-tag; GST (N); purchased Carna Biosciences, Inc; host or cells: baculovirus expression system
Sequence (P29597 871-1187): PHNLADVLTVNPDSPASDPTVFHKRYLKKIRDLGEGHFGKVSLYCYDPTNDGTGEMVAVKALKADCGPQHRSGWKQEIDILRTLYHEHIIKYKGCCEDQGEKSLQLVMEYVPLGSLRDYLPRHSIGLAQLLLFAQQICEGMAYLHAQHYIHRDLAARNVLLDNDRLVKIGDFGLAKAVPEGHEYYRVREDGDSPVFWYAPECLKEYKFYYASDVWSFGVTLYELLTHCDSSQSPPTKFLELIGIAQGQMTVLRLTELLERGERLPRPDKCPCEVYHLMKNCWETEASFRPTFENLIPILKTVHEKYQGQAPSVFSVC
Assay: JAK kinase assay (HTRF, phosphorylation of TK substrate-biotin), TYK2
Assay type: biochemical
Details: HTRF assay, ATP at Km (13 μM); read-out: TYK2 kinase inhibitory activity (EC50 indicator)

These recorded examples may help you get a feel for the data.
Input Smiles	EC50
NS(=O)(=O)c1cccc(CC(=O)N2CCN(c3ncnc4[nH]ccc34)CC23CC3)c1	> 500 nM
N#CCCNS(=O)(=O)c1ccc(C(=O)N2CCN(c3ncnc4[nH]ccc34)CC23CC3)cc1	< 100 nM
COCCS(=O)(=O)c1ccc(C(=O)N2CCN(c3ncnc4[nH]ccc34)CC23CC3)cc1	100 to 500 nM

From here, focus on the item given below.
*Q* Given the entry `Cc1cc(C(=O)N2CCN(c3ncnc4[nH]ccc34)CC23CC3)ccc1S(C)(=O)=O` , what EC50 was observed with TYK2 (aa 871-1187, catalytic domain, GST-tag) (Homo sapiens)?
*A* 100 to 500 nM
